B1: SASS6 (parent)
chain: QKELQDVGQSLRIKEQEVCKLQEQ

variants of: B1; assay: protein stability index of a GFP-peptide fusion (GPS, HEK-293T) (PSI 1-6); higher = more stable; conditions: c terminus: a fixed tail appended;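 further: lentivirally expressed fusions sorted by FACS into six bins by GFP to DsRed ratio, PSI derived from sequencing read proportions per bin multiplied by bin number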
MEASURED QUANTITY: protein stability index

YKELQDVGQSLRIKEQEVCKLQEQ [Q1Y]	4.78
QKELQDVGGSLRIKEQEVCKLQEQ [Q9G]	5.02
QKELFDVGQSLRIKEQEVCKLQEQ [Q5F]	4.27
QKELQDVGQSLLIKEQEVCKLQEQ [R12L]	5.33
TKELQDVGQSLRIKEQEVCKLQEQ [Q1T]	4.55
QCELQDVGQSLRIKEQEVCKLQEQ [K2C]	5.29
QKELQDVGQSLRIKEQEVVKLQEQ [C19V]	5.25
QKELQDVGQSNRIKEQEVCKLQEQ [L11N]	5.77
QKELQDVGQSLRIKEQEVCKKQEQ [L21K]	5.81
QKELQNVGQSLRIKEQEVCKLQEQ [D6N]	4.9
QKELQDVAQSLRIKEQEVCKLQEQ [G8A]	3.61
QKELQDVGQSLRIKEQEVCSLQEQ [K20S]	5.55
QKELQDVGQSLRIMEQEVCKLQEQ [K14M]	4.47
QKELQYVGQSLRIKEQEVCKLQEQ [D6Y]	4.58
QKELKDVGQSLRIKEQEVCKLQEQ [Q5K]	5.7
QKELQDVGQSLKIKEQEVCKLQEQ [R12K]	5.55
QKELQDVGQSLRIKEGEVCKLQEQ [Q16G]	5.83
QKELQDVGQSLRIKPQEVCKLQEQ [E15P]	4.66
QKELQDVGMSLRIKEQEVCKLQEQ [Q9M]	4.67
QKELQDVGQSLRIKEQEVCKLQYQ [E23Y]	4.12
QKELQDVGQSLRIKEQEVCKLQLQ [E23L]	4.69
QKELQDVGQSLRYKEQEVCKLQEQ [I13Y]	4.95
